Listed below: pIC50 values for each entry.
Target: LK35.2-hPD-L1 cells / PE-labeled PD-1-Ig (Homo sapiens, UniProt Q9NZQ7)
Construct: expressed in transfected cells; host or cells: LK35.2 mouse B cell line
Sequence (Q9NZQ7 19-290): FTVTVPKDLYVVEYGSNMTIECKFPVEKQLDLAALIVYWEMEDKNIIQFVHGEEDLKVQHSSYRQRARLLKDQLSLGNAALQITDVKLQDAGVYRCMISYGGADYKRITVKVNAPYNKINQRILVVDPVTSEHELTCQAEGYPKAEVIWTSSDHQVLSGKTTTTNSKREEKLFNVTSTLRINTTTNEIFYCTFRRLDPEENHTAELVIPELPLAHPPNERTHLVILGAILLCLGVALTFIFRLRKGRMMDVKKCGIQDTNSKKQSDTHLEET
Experiment: LK35.2-hPD-L1 cell binding high-content screening assay
Type: cell-based
Conditions: cell binding assay, cell line not given; numeric value; read-out: CBA IC50 values
pIC50: −log10 of the molar value. Positions of bridges follow the written chain, without caps; N, C: chain ends. Non-standard residues stand in square brackets, D forms with d. Residues, ends and D or L forms follow the SMILES beside them. ξ: configuration not given here. Bta = N[C@@H](Cc1csc2ccccc12)C(=O)O; Hyp = O=C(O)[C@@H]1C[C@@H](O)CN1; NMeNle = CCCC[C@H](NC)C(=O)O; NMeM = CN[C@@H](CCSC)C(=O)O; NMeA = CN[C@@H](C)C(=O)O; Dap = NC[C@H](N)C(=O)O; ξC = NC(CS)C(=O)O
Parameter: pIC50

{"Compound": "CCCC[C@H]1C(=O)N[C@@H](CCCNC(=N)N)C(=O)NC(C(=O)NCC(N)=O)CSCC(=O)N[C@@H](Cc2ccc(O)cc2)C(=O)N(C)[C@@H](C)C(=O)N[C@@H](CC(N)=O)C(=O)N2CCC[C@H]2C(=O)N[C@@H](CN)C(=O)N[C@@H](CC(C)C)C(=O)N2C[C@H](O)C[C@H]2C(=O)N[C@@H](Cc2c[nH]c3ccccc23)C(=O)N[C@@H](CO)C(=O)N[C@@H](Cc2c[nH]c3ccccc23)C(=O)N(C)[C@@H](CCSC)C(=O)N1C (stereo partly shown) [Example 9091] ({CH2CO}-Y[NMeA]NP[Dap]L[Hyp]WSW[NMeM][NMeNle]R[ξC]G-NH2; thioether N-14)", "Value Observed": 8.52}
{"Compound": "CCCC[C@H]1C(=O)N[C@@H](CCCNC(=N)N)C(=O)NC(C(=O)NCC(N)=O)CSCC(=O)N[C@@H](Cc2ccc(O)cc2)C(=O)N(C)[C@@H](C)C(=O)N[C@@H](CC(N)=O)C(=O)N2CCC[C@H]2C(=O)N[C@@H](Cc2cnc[nH]2)C(=O)N[C@@H](CC(C)C)C(=O)N2C[C@H](O)C[C@H]2C(=O)N[C@@H](Cc2c[nH]c3ccccc23)C(=O)N[C@@H](CO)C(=O)N[C@@H](Cc2c[nH]c3ccccc23)C(=O)N(C)[C@@H](C)C(=O)N1C (stereo partly shown)", "Value Observed": 7.71}
{"Compound": "CCCC[C@H]1C(=O)N(C)[C@@H](CCCC)C(=O)N[C@@H](CCCNC(=N)N)C(=O)NC(C(=O)NCC(N)=O)CSCC(=O)N[C@@H](Cc2ccc(O)cc2)C(=O)N(C)[C@@H](C)C(=O)N[C@@H](CC(N)=O)C(=O)N2CCC[C@H]2C(=O)N[C@@H](Cc2cnc[nH]2)C(=O)N[C@@H](CO)C(=O)N2CCC[C@H]2C(=O)N[C@@H](Cc2c[nH]c3ccccc23)C(=O)N[C@@H](CO)C(=O)N[C@@H](Cc2csc3ccccc23)C(=O)N1C (stereo partly shown) [Example 9068] ({CH2CO}-Y[NMeA]NPHSPWS[Bta][NMeNle][NMeNle]R[ξC]G-NH2; thioether N-14)", "Value Observed": 8.69}
{"Compound": "CCCC[C@H]1C(=O)N[C@@H](CCCNC(=N)N)C(=O)NC(C(=O)NCC(N)=O)CSCC(=O)N[C@@H](Cc2ccc(O)cc2)C(=O)N(C)[C@@H](C)C(=O)N[C@@H](CC(N)=O)C(=O)N2CCC[C@H]2C(=O)N[C@@H](Cc2cnc[nH]2)C(=O)N[C@@H](CC(C)C)C(=O)N2C[C@H](O)C[C@H]2C(=O)N[C@@H](Cc2c[nH]c3ccccc23)C(=O)N[C@@H](CO)C(=O)N[C@@H](Cc2c[nH]c3ccccc23)C(=O)N(C)[C@@H](CCSC)C(=O)N1C (stereo partly shown)", "Value Observed": 9.02}
